Sourced from PubChem BioAssay (EPA / NIEHS)

Read-out: Insulin-like growth factor-binding protein 1 (IGFBP1), IGFBP1 (gene 3484)
Test: LTEA_HepaRG_IGFBP1: Life Technologies and Expression Analysis (LTEA) Assay for Insulin-like growth factor-binding protein 1 (IGFBP1) using HepaRG (AID 2283508)
Conditions: mRNA level, 48 h; actives raise or lower the signal
Active and inactive are the calls of the source. How the source made its calls: active means hit-call score of the fitted dose curve at least 0.9, where 1 is the maximum; inactive means score below 0.9.
measure: outcome

OC[C@H]1O[C@@H]2O[C@H]3[C@H](O)[C@@H](O)[C@@H](O[C@H]4[C@H](O)[C@@H](O)[C@@H](O[C@H]5[C@H](O)[C@@H](O)[C@@H](O[C@H]6[C@H](O)[C@@H](O)[C@@H](O[C@H]7[C@H](O)[C@@H](O)[C@@H](O[C@H]1[C@H](O)[C@H]2O)O[C@@H]7CO)O[C@@H]6CO)O[C@@H]5CO)O[C@@H]4CO)O[C@@H]3CO    inactive
NC(=O)N1c2ccccc2C=Cc2ccccc21    inactive
CCCCCCCCN(C)C    inactive

* * *

Read-out: Tumor necrosis factor receptor superfamily member 6 (Homo sapiens) (UniProt P25445)
Assay: LTEA_HepaRG_FAS: Life Technologies and Expression Analysis (LTEA) Assay for Fas cell surface death receptor (FAS) using HepaRG (AID 2283447)
Settings: mRNA level, 48 h; actives raise or lower the signal
The source made the active and inactive calls. How the source made its calls: active means hit-call score of the fitted dose curve at least 0.9, where 1 is the maximum; inactive means score below 0.9.
The categories you may choose from are active, inactive

query: Dear all, I need the recorded test outcome for Cc1nc(-c2ccccn2)ncc1C(=O)Nn1cc(C)c2cc(F)ccc21 , thank you.
result: inactive

query: Dear all, I need the recorded test outcome for CC(C)CC(C)O (centres undefined) , thank you.
result: inactive

query: Dear all, I need the recorded test outcome for CCCCCCCCCC , thank you.
result: inactive

query: Dear all, I need the recorded test outcome for CCN(CC)C(=S)SSC(=S)N(CC)CC , thank you.
result: inactive

query: Dear all, I need the recorded test outcome for O=C(O)c1cccc(C(=O)O)c1 , thank you.
result: inactive

query: Dear all, I need the recorded test outcome for COc1cc2c(c(OC)c1OC)-c1ccc(OC)c(=O)cc1[C@@H](NC(C)=O)CC2 , thank you.
result: active

query: Dear all, I need the recorded test outcome for NC(=O)N(O)[C@@H]1COc2cc(OCc3ccccc3)ccc21 , thank you.
result: inactive

query: Dear all, I need the recorded test outcome for Cn1c(=O)c2[nH]cnc2n(C)c1=O , thank you.
result: inactive

query: Dear all, I need the recorded test outcome for CCc1ccc(O)c(C(C)(C)C)c1 , thank you.
result: inactive

query: Dear all, I need the recorded test outcome for O=c1[nH]cnc2c1ncn2[C@H]1CC[C@@H](CO)O1 , thank you.
result: inactive

query: Dear all, I need the recorded test outcome for O=C(NO)C1(NS(=O)(=O)c2ccc(Oc3ccc(F)cc3)cc2)CCOCC1 , thank you.
result: inactive

query: Dear all, I need the recorded test outcome for C[C@@H](Oc1ccc(CNC(=O)c2cccnc2Oc2ccc3c(c2)OCO3)c(F)c1)C(=O)O , thank you.
result: inactive

query: Dear all, I need the recorded test outcome for CCOC(N)=O , thank you.
result: inactive

query: Dear all, I need the recorded test outcome for CCCCCOC(C)=O , thank you.
result: inactive

query: Dear all, I need the recorded test outcome for Nc1ccn([C@@H]2O[C@H](CO)[C@@H](O)[C@@H]2O)c(=O)n1 , thank you.
result: inactive

query: Dear all, I need the recorded test outcome for Cc1ccc(S(=O)(=O)NC(=O)NN2CCCCCC2)cc1 , thank you.
result: inactive

query: Dear all, I need the recorded test outcome for C[C@]12C=CC(=O)C=C1CC[C@H]1[C@@H]3C[C@@H](O)[C@](O)(C(=O)CO)[C@@]3(C)C[C@H](O)[C@@]12F , thank you.
result: inactive

query: Dear all, I need the recorded test outcome for CCCCN1C(=O)[C@@H]([C@H](O)C2CCCCC2)NC(=O)C12CCN(Cc1ccc(Oc3ccc(C(=O)O)cc3)cc1)CC2 , thank you.
result: inactive

query: Dear all, I need the recorded test outcome for O=C1CN(N=Cc2ccc([N+](=O)[O-])o2)C(=O)N1 , thank you.
result: inactive

query: Dear all, I need the recorded test outcome for CCCCCCCC1CCC(=O)O1 (centres undefined) , thank you.
result: inactive

query: Dear all, I need the recorded test outcome for CC(C)c1nnc2ccc(-c3ocnc3-c3cc(F)ccc3F)cn12 , thank you.
result: inactive

query: Dear all, I need the recorded test outcome for NC(=O)N1c2ccccc2C=Cc2ccccc21 , thank you.
result: inactive

query: Dear all, I need the recorded test outcome for CCCCCCCC/C=C\CCCCCCCC(=O)OC[C@@H](O)[C@H]1OC[C@H](O)[C@H]1O , thank you.
result: inactive

query: Dear all, I need the recorded test outcome for C=CN1CCCC1=O , thank you.
result: inactive

query: Dear all, I need the recorded test outcome for NC(=O)NN=Cc1ccc([N+](=O)[O-])o1 , thank you.
result: inactive

query: Dear all, I need the recorded test outcome for CCn1nc(C)c2c1C(=O)NCC(c1ccc(O)cc1)=N2 , thank you.
result: inactive

query: Dear all, I need the recorded test outcome for CCCCC(CC)C(=O)OCCOCCOCCOC(=O)C(CC)CCCC (centres undefined) , thank you.
result: inactive

query: Dear all, I need the recorded test outcome for CCCCCCCCCCCCCCCCOS(=O)(=O)O , thank you.
result: inactive

query: Dear all, I need the recorded test outcome for CCCCCCCCN(C)C , thank you.
result: inactive

* * *

Test: APR_HepG2_CellCycleArrest_24hr: Apredica 24-hour HepG2 Assay for Cell Cycle Arrest (AID 2282905);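 further: cell cycle arrest scored as ratio of 2N to 4N nuclear DNA content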
Settings: imaging, actives raise or lower the signal
Calls of active or inactive are those of the source. Rule for the calls: active = hit-call score of the fitted dose curve at least 0.9, where 1 is the maximum; inactive = score below 0.9.
The categories you may choose from are 1 (yes) (active), 0 (no) (inactive)

query: Dear all, I need the recorded test outcome for Cn1c(=O)c2[nH]cnc2n(C)c1=O , thank you.
result: 0 (no)

query: Dear all, I need the recorded test outcome for C=CN1CCCC1=O , thank you.
result: 0 (no)

query: Dear all, I need the recorded test outcome for CCCCOC(=O)c1ccccc1 , thank you.
result: 0 (no)

query: Dear all, I need the recorded test outcome for CCCCCOC(C)=O , thank you.
result: 0 (no)

query: Dear all, I need the recorded test outcome for OCCNCCO , thank you.
result: 0 (no)

query: Dear all, I need the recorded test outcome for C=CCc1cc(S(=O)(=O)c2ccc(O)c(CC=C)c2)ccc1O , thank you.
result: 1 (yes)

query: Dear all, I need the recorded test outcome for NNC(=O)c1ccncc1 , thank you.
result: 0 (no)

query: Dear all, I need the recorded test outcome for CCCC(CCC)C(=O)O , thank you.
result: 0 (no)

query: Dear all, I need the recorded test outcome for CCc1ccc(O)c(C(C)(C)C)c1 , thank you.
result: 1 (yes)

query: Dear all, I need the recorded test outcome for COS(C)(=O)=O , thank you.
result: 0 (no)

query: Dear all, I need the recorded test outcome for CC1(C)C(=O)N(Cl)C(=O)N1Cl , thank you.
result: 0 (no)

query: Dear all, I need the recorded test outcome for CCCOc1ccc(S(=O)(=O)N2CCN(CC)CC2)cc1-c1nc2c(CC)n(Cc3ccccn3)nc2c(=O)[nH]1 , thank you.
result: 0 (no)

query: Dear all, I need the recorded test outcome for CCCCN1C(=O)[C@@H]([C@H](O)C2CCCCC2)NC(=O)C12CCN(Cc1ccc(Oc3ccc(C(=O)O)cc3)cc1)CC2 , thank you.
result: 0 (no)

* * *

Read-out: Interleukin-8 (IL8), CXCL8 (gene 3576)
Assay: BSK_CASM3C_IL8: BioMAP Diversity Plus: CASM3C Assay for Interleukin-8 (IL8) Biomarker Activity (AID 2283042);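 further: IL-8 protein level quantified by ELISA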
Conditions: primary human coronary artery smooth muscle cells; actives raise or lower the signal
Activity calls are given as the source filed them. How the source made its calls: active means hit-call score of the fitted dose curve at least 0.9, where 1 is the maximum; inactive means score below 0.9.
The categories you may choose from are active, inactive

query: Dear all, I need the recorded test outcome for C=CCc1cc(S(=O)(=O)c2ccc(O)c(CC=C)c2)ccc1O , thank you.
result: active

query: Dear all, I need the recorded test outcome for NC(=O)NN=Cc1ccc([N+](=O)[O-])o1 , thank you.
result: inactive

query: Dear all, I need the recorded test outcome for OC[C@H]1O[C@@](CO)(O[C@H]2O[C@H](CO)[C@@H](O)[C@H](O)[C@H]2O)[C@@H](O)[C@@H]1O , thank you.
result: inactive

query: Dear all, I need the recorded test outcome for OC(O)(C(F)C(O)(O)C(F)(F)F)C(F)(F)F , thank you.
result: inactive

query: Dear all, I need the recorded test outcome for C=CN1CCCC1=O , thank you.
result: inactive

query: Dear all, I need the recorded test outcome for CCN(CC)C(=S)SSC(=S)N(CC)CC , thank you.
result: active

query: Dear all, I need the recorded test outcome for OCCC(F)(F)C(F)(F)C(F)(F)C(F)(F)F , thank you.
result: inactive

query: Dear all, I need the recorded test outcome for O=C(O)[C@H](O)[C@@H](O)C(=O)O , thank you.
result: inactive

query: Dear all, I need the recorded test outcome for CC1(C)C(=O)N(Cl)C(=O)N1Cl , thank you.
result: inactive

query: Dear all, I need the recorded test outcome for c1ccc2ncccc2c1 , thank you.
result: inactive

query: Dear all, I need the recorded test outcome for COc1cc2c(c(OC)c1OC)-c1ccc(OC)c(=O)cc1[C@@H](NC(C)=O)CC2 , thank you.
result: inactive

query: Dear all, I need the recorded test outcome for OCC(CO)(CO)CO , thank you.
result: inactive

query: Dear all, I need the recorded test outcome for c1ccc(C(O[C@@H]2CCCN(CCc3ccc4c(c3)OCO4)C2)c2ccccc2)cc1 , thank you.
result: inactive

query: Dear all, I need the recorded test outcome for Cc1cccc(O)c1C , thank you.
result: inactive

query: Dear all, I need the recorded test outcome for O=S(=O)(O)CCC(F)(F)C(F)(F)C(F)(F)C(F)(F)C(F)(F)C(F)(F)F , thank you.
result: inactive

query: Dear all, I need the recorded test outcome for NC(=O)N1c2ccccc2C=Cc2ccccc21 , thank you.
result: inactive

query: Dear all, I need the recorded test outcome for Cc1nc(-c2ccccn2)ncc1C(=O)Nn1cc(C)c2cc(F)ccc21 , thank you.
result: inactive
